molecular target: AD brain-derived tau seeds (Homo sapiens, UniProt P10636, C639S); test: biochemical; type: biochemical; details: read-out: percent inhibition (vehicle AUC 100% minus percent AUC of compound)
Sequence (P10636 1-352 isoform P10636-2 C233S): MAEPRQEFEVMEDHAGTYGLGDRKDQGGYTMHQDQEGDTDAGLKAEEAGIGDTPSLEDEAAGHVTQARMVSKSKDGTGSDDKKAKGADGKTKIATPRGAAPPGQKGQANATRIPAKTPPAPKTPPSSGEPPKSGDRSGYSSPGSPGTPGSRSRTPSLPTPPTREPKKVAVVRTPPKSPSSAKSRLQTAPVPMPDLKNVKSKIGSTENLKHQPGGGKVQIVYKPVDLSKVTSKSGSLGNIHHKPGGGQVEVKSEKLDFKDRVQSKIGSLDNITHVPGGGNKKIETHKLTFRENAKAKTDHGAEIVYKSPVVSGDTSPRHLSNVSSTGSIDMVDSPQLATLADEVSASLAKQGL
The entries below come with measured inhibition at 100 µM values attached.
measured-metric: inhibition at 100 µM

>  <molecule>
O=C(/C=C/c1ccc(O)c(O)c1)O[C@H](Cc1ccc(O)c(O)c1)C(=O)O

>  <observed-result>
> 95%

$$$$
>  <molecule>
CN(C)c1ccc2nc3ccc(=[N+](C)C)cc-3sc2c1

>  <observed-result>
> 99%

$$$$
>  <molecule>
CC[C@@]1(O)C(=O)OCc2c1cc1n(c2=O)Cc2cc3c(CN(C)C)c(O)ccc3nc2-1

>  <observed-result>
92%

$$$$
>  <molecule>
COc1cccc2c1C(=O)c1c(O)c3c(c(O)c1C2=O)C[C@@](O)(C(=O)CO)C[C@@H]3O[C@H]1C[C@H](N)[C@@H](O)[C@H](C)O1 [Epirubicin]

>  <observed-result>
> 99%

$$$$
>  <molecule>
Nc1c(/N=N/c2ccc(-c3ccc(/N=N/c4cc(S(=O)(=O)O)c5ccccc5c4N)cc3)cc2)cc(S(=O)(=O)O)c2ccccc12

>  <observed-result>
> 95%

$$$$
>  <molecule>
O=c1c(O)c(-c2cc(O)c(O)c(O)c2)oc2cc(O)cc(O)c12

>  <observed-result>
> 95%

$$$$
>  <molecule>
O=S(=O)(O)c1cc(S(=O)(=O)O)c2c(/N=N/c3ccccc3)c(O)ccc2c1

>  <observed-result>
39%

$$$$
